Recorded values, source paper PMC9176367.

# ASSAY NOTES: In vivo pharmacokinetics in mice after oral administration
# ASSAY CONDITIONS: male, CD-1, mouse, brain/plasma, po, 100 mg/kg, Tissue-to-plasma ratio (by AUC), brain, 100 mg/kg po

COMPOUND: CC(C)(C)c1sc2ncnc(Oc3ccccc3OC(F)(F)F)c2c1-c1ccc(Cl)c(Cl)c1 [Compound 1t]
Kp: 0.022
